The measured values listed here are drawn from patent US5407954A.

# Target Under Test: cloned rat 5-HT2 receptor (Rattus norvegicus, UniProt P14842)
# Construct: expressed in transfected cells; host or cells: NIH 3T3 fibroblasts, line 'GF-6'
# Sequence (P14842 whole entry): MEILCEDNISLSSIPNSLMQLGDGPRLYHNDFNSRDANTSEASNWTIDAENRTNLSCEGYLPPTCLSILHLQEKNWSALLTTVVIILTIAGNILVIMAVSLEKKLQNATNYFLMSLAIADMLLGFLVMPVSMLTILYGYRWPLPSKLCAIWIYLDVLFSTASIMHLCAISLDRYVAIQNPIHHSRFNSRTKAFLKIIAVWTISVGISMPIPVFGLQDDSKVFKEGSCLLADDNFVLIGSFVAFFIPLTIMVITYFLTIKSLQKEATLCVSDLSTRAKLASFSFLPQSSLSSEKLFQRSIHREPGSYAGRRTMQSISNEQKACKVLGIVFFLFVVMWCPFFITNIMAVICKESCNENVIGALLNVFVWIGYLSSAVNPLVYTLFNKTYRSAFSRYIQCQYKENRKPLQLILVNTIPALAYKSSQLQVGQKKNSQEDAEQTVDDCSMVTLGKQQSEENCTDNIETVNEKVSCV
# Protocol Text: Affinity for 5-HT2 receptors on transfected fibroblast cell membranes ([125I]LSD competition binding, NIH 3T3 GF-6 cells)
# Measurement Context: NIH 3T3 GF-6 cell membranes, 37° C., 60 minutes, pH 7.6
Endpoint Name: IC50 (nM)
Hi! Could you send only the number? It should be in nM, unit omitted.

INSERT INTO assay_data (molecule, endpoint_name, result_number) VALUES
  ('c1ccc(COc2ccccc2OC(Cc2ccccc2)C2=NCCN2)cc1 (stereo not shown) [101,600]', 'IC50', 2.5);

Supply measured IC50 of c1ccc(CCOc2ccccc2OC(Cc2ccccc2)C2=NCCN2)cc1 (stereo not shown) [101,623] in your reply. 14

Supply measured IC50 of COc1ccc(CC(Oc2ccccc2OCc2ccccc2)C2=NCCN2)cc1 (stereo not shown) [100,499] in your reply. 3.5

Supply measured IC50 of c1ccc(CCCC(Oc2ccccc2OCc2ccccc2)C2=NCCN2)cc1 (stereo not shown) [102,588] in your reply. 167
